Test system: Enterobacter cloacae
assay.summary: Antibacterial activity was determined against Gram-negative Enterobacter cloacae HA2646 bacteria
Format: functional
Listed molecules paired with reported MIC
measured.parameter: MIC (µg/mL)

CN(C)CC1(c2ccccc2)CCN(c2c(F)cc3c(=O)c(C(=O)O)cn(C4CC4)c3c2F)C1 (stereo not given) : 0.05
CC1(CN)CCN(c2c(F)cc3c(=O)c(C(=O)O)cn(C4CC4)c3c2F)C1 (stereo not given) : 0.025
CC1(N)CCN(c2c(F)cc3c(=O)c(C(=O)O)cn(C4CC4)c3c2F)C1 (stereo not given) : 0.2
CCNCC1(c2ccccc2)CCN(c2c(F)cc3c(=O)c(C(=O)O)cn(C4CC4)c3c2F)C1 (stereo not given) : 0.8
NC1CCN(c2c(F)cc3c(=O)c(C(=O)O)cn(C4CC4)c3c2F)C1 (stereo not given) : 0.025
NCC1CN(c2c(F)cc3c(=O)c(C(=O)O)cn(C4CC4)c3c2F)CC1c1ccccc1 (stereo not given) : 0.2
NCC1(c2ccccc2)CCN(c2c(F)cc3c(=O)c(C(=O)O)cn(C4CC4)c3c2F)C1 (stereo not given) : 0.05
NC1(c2ccccc2)CCN(c2c(F)cc3c(=O)c(C(=O)O)cn(C4CC4)c3c2F)C1 (stereo not given) : 0.006
NC1CN(c2c(F)cc3c(=O)c(C(=O)O)cn(C4CC4)c3c2F)CC1c1ccccc1 (stereo not given) : 0.2
NCC1CCN(c2c(F)cc3c(=O)c(C(=O)O)cn(C4CC4)c3c2F)C1 (stereo not given) : 0.05

These measurements were taken from ChEMBL document CHEMBL1125100.
